- ASSAY REMARKS: activity coefficient (dimensionless); of the first substance listed, at infinite dilution; xn = mol fraction of the nth substance listed
- CONDITION DESCRIPTION: 333.15 K; Liquid; Chromatography; x1 = 0
In this section we review reported activity coefficient values for a set of molecules.

IN: Please give the measured activity coefficient for this molecule: CCCCCCCCCC [decane] + CCCOC[n+]1ccn(Cc2ccccc2)c1.O=S(=O)([N-]S(=O)(=O)C(F)(F)F)C(F)(F)F
OUT: 23.2

IN: Please look up its activity coefficient: C[N+](=O)[O-] [nitromethane] + N#C[N-]C#N.N#C[N-]C#N.c1ccc(Cn2cc[n+](COCCCOC[n+]3ccn(Cc4ccccc4)c3)c2)cc1
OUT: 0.85

IN: Query (molecule): CC(C)O [propan-2-ol] + CCCCCCCCn1cc[n+](COCCCOC[n+]2ccn(CCCCCCCC)c2C)c1C.N#C[N-]C#N.N#C[N-]C#N ; field requested: activity coefficient
OUT: 0.38

IN: Which value of activity coefficient has been reported for C1COCCO1 [1,4-dioxane] + CCCOC[n+]1ccn(C)c1.O=S(=O)([N-]S(=O)(=O)C(F)(F)F)C(F)(F)F in the records?
OUT: 0.57

IN: Need activity coefficient of C1CCCCCC1 [cycloheptane] + CCCOC[n+]1ccn(Cc2ccccc2)c1.O=S(=O)([N-]S(=O)(=O)C(F)(F)F)C(F)(F)F , thanks.
OUT: 15.8

IN: Fill in: activity coefficient of CC#N [acetonitrile] + CN(C)c1cc[n+](COCCCOC[n+]2ccc(N(C)C)cc2)cc1.O=S(=O)([N-]S(=O)(=O)C(F)(F)F)C(F)(F)F.O=S(=O)([N-]S(=O)(=O)C(F)(F)F)C(F)(F)F is ___
OUT: 0.37

* * *

- ASSAY REMARKS: activity coefficient (dimensionless); of the first substance listed, at infinite dilution; xn = mol fraction of the nth substance listed
- CONDITION DESCRIPTION: 323.15 K; Liquid; Chromatography; x1 = 0
METRIC NAME: activity coefficient
Keep the answer to the number alone.

The following compounds have reported results that may help.
{"COMPOUND": "CCCCCCCCCCCC [dodecane] + CCCOC[n+]1ccn(C)c1.O=S(=O)([N-]S(=O)(=O)C(F)(F)F)C(F)(F)F", "VAL": 132}
{"COMPOUND": "C#CCCCCC [1-heptyne] + CCCOC[n+]1ccn(C)c1.F[B-](F)(F)F", "VAL": 16.6}
{"COMPOUND": "CCC(C)=O [butanone] + CCCCCCCCn1cc[n+](COCCC)c1C.O=S(=O)([N-]S(=O)(=O)C(F)(F)F)C(F)(F)F", "VAL": 0.36}
{"COMPOUND": "C1COCCO1 [1,4-dioxane] + CN(C)c1cc[n+](COCCCOC[n+]2ccc(N(C)C)cc2)cc1.O=S(=O)([N-]S(=O)(=O)C(F)(F)F)C(F)(F)F.O=S(=O)([N-]S(=O)(=O)C(F)(F)F)C(F)(F)F", "VAL": 0.44}
{"COMPOUND": "C[N+](=O)[O-] [nitromethane] + CCCCCCCCn1cc[n+](COCCCOC[n+]2ccn(CCCCCCCC)c2C)c1C.N#C[N-]C#N.N#C[N-]C#N", "VAL": 0.44}
{"COMPOUND": "CCOCC [diethyl ether] + CCCOC[n+]1ccn(Cc2ccccc2)c1.F[B-](F)(F)F", "VAL": 6.03}

IN: Dear colleague, I am looking for the recorded activity coefficient of the following compound: CCO [ethanol] + CCCOC[n+]1ccn(Cc2ccccc2)c1.N#C[N-]C#N
OUT: 0.73

* * *

- ASSAY REMARKS: activity coefficient (dimensionless); of the first substance listed, at infinite dilution; xn = mol fraction of the nth substance listed
- CONDITION DESCRIPTION: 333.15 K; Liquid; Chromatography; x1 = 0
Here, each record is paired with measured activity coefficient data.
Give the figure only, with no unit attached.

Guide cases for activity coefficient, answers given:
{"MOLECULE": "c1ccncc1 [pyridine] + CCCOC[n+]1ccn(C)c1.N#C[N-]C#N", "VAL": 0.93}
{"MOLECULE": "CC(C)O [propan-2-ol] + CCCOC[n+]1ccn(C)c1.O=S(=O)([N-]S(=O)(=O)C(F)(F)F)C(F)(F)F", "VAL": 1.51}
{"MOLECULE": "CO [methanol] + CCCOC[n+]1ccn(C)c1.N#C[N-]C#N", "VAL": 0.44}
{"MOLECULE": "c1ccsc1 [thiophene] + CCCOC[n+]1ccc(N(C)C)cc1.O=S(=O)([N-]S(=O)(=O)C(F)(F)F)C(F)(F)F", "VAL": 0.69}
{"MOLECULE": "C1CCCCCC1 [cycloheptane] + CCCCCCCCn1cc[n+](COCCCOC[n+]2ccn(CCCCCCCC)c2C)c1C.N#C[N-]C#N.N#C[N-]C#N", "VAL": 13.5}
{"MOLECULE": "CCC(=O)CC [pentan-3-one] + CCCCCCCCn1cc[n+](COCCC)c1C.O=S(=O)([N-]S(=O)(=O)C(F)(F)F)C(F)(F)F", "VAL": 0.45}
{"MOLECULE": "Cc1cccc(C)c1 [1,3-dimethylbenzene] + CCCOC[n+]1ccn(C)c1.N#C[N-]C#N", "VAL": 6.24}
{"MOLECULE": "CCCCCCCCC [nonane] + CCCOC[n+]1ccn(Cc2ccccc2)c1.N#C[N-]C#N", "VAL": 93.6}

IN: Could you share which activity coefficient value was measured for C1CCCCCC1 [cycloheptane] + CCCOC[n+]1ccn(Cc2ccccc2)c1.N#C[N-]C#N ?
OUT: 47.2

IN: Which activity coefficient is listed for C1COCCO1 [1,4-dioxane] + CCCOC[n+]1ccn(Cc2ccccc2)c1.F[B-](F)(F)F ?
OUT: 0.95

IN: Which activity coefficient is listed for CCCCCCCCCC [decane] + CCCCCCCCn1cc[n+](COCCC)c1C.N#C[N-]C#N ?
OUT: 15.5

IN: Returns the measured activity coefficient for the input molecule. Input: Cc1ccccc1C [1,2-dimethylbenzene] + CCCOC[n+]1ccn(C)c1.N#C[N-]C#N
OUT: 5.13

IN: What value of activity coefficient has been recorded for this entry: Cc1cccc(C)c1 [1,3-dimethylbenzene] + CCCCCCCCn1cc[n+](COCCC)c1C.O=S(=O)([N-]S(=O)(=O)C(F)(F)F)C(F)(F)F
OUT: 1

IN: Look up activity coefficient: c1ccncc1 [pyridine] + Cn1cc[n+](COCCCOC[n+]2ccn(C)c2)c1.N#C[N-]C#N.N#C[N-]C#N
OUT: 1.01

IN: I'd like to know its activity coefficient. The molecule in question is CCCC(C)=O [pentan-2-one] + CCCOC[n+]1ccn(C)c1.N#C[N-]C#N
OUT: 2.27

IN: What value of activity coefficient has been reported for the following molecule? CCCCCCCCC [nonane] + CCCOC[n+]1ccn(C)c1.O=S(=O)([N-]S(=O)(=O)C(F)(F)F)C(F)(F)F
OUT: 45.9

* * *

- ASSAY REMARKS: activity coefficient (dimensionless); of the first substance listed, at infinite dilution; xn = mol fraction of the nth substance listed
- CONDITION DESCRIPTION: 333.15 K; Liquid; Chromatography; x1 = 0
Checkbox rule: activity coefficient lower than 10 = 1; activity coefficient not lower than 10 = -1.

{"COMPOUND": "CCCCCCC [heptane] + CCCOC[n+]1ccn(Cc2ccccc2)c1.N#C[N-]C#N", "CAT": -1}
{"COMPOUND": "CCCCO [butan-1-ol] + CCCCCCCCn1cc[n+](COCCC)c1C.O=S(=O)([N-]S(=O)(=O)C(F)(F)F)C(F)(F)F", "CAT": 1}
{"COMPOUND": "CC(C)OC(C)C [diisopropyl ether] + CCCOC[n+]1ccn(Cc2ccccc2)c1.F[B-](F)(F)F", "CAT": -1}

IN: Say whether its activity coefficient is strictly beneath 10. Entry: CCCCCCCCCCCC [dodecane] + CCCCCCCCn1cc[n+](COCCCOC[n+]2ccn(CCCCCCCC)c2C)c1C.N#C[N-]C#N.N#C[N-]C#N
OUT: -1

IN: Take the compound C[N+](=O)[O-] [nitromethane] + CCCCCCCCn1cc[n+](COCCC)c1C.O=S(=O)([N-]S(=O)(=O)C(F)(F)F)C(F)(F)F and say whether its activity coefficient is less than 10.
OUT: 1

IN: Quick check: does CCCCCC [hexane] + CCCOC[n+]1ccn(Cc2ccccc2)c1.O=S(=O)([N-]S(=O)(=O)C(F)(F)F)C(F)(F)F have activity coefficient under 10?
OUT: 1

IN: Does CCCCCC [hexane] + CCCOC[n+]1ccc(N(C)C)cc1.O=S(=O)([N-]S(=O)(=O)C(F)(F)F)C(F)(F)F have activity coefficient strictly under 10?
OUT: -1

IN: API: query returns whether the compound falls strictly under 10 in activity coefficient. Query: Cc1cccc(C)c1 [1,3-dimethylbenzene] + CCCOC[n+]1ccn(Cc2ccccc2)c1.O=S(=O)([N-]S(=O)(=O)C(F)(F)F)C(F)(F)F
OUT: 1

IN: Problem: For the compound CC(C)OC(C)C [diisopropyl ether] + CCCOC[n+]1ccc(N(C)C)cc1.O=S(=O)([N-]S(=O)(=O)C(F)(F)F)C(F)(F)F , is activity coefficient under 10?
OUT: 1

IN: Is 10 strictly greater than the compound's reported activity coefficient? compound: CC(C)O [propan-2-ol] + CCCOC[n+]1ccc(N(C)C)cc1.O=S(=O)([N-]S(=O)(=O)C(F)(F)F)C(F)(F)F
OUT: 1

IN: Given CCC(C)CC [3-methylpentane] + CCCCCCCCn1cc[n+](COCCC)c1C.N#C[N-]C#N , is recorded activity coefficient strictly lower than 10?
OUT: 1

IN: # TODO verify activity coefficient < 10 strictly for this compound: CC(C)CC(C)(C)C [2,2,4-trimethylpentane] + CN(C)c1cc[n+](COCCCOC[n+]2ccc(N(C)C)cc2)cc1.O=S(=O)([N-]S(=O)(=O)C(F)(F)F)C(F)(F)F.O=S(=O)([N-]S(=O)(=O)C(F)(F)F)C(F)(F)F
OUT: -1

IN: Input CCCCCCCCCC [decane] + CCCOC[n+]1ccc(N(C)C)cc1.O=S(=O)([N-]S(=O)(=O)C(F)(F)F)C(F)(F)F ; condition: activity coefficient strictly below 10. Does it hold?
OUT: -1

IN: Say whether its activity coefficient is strictly beneath 10. Entry: CCCCCC [hexane] + CCCOC[n+]1ccn(C)c1.O=S(=O)([N-]S(=O)(=O)C(F)(F)F)C(F)(F)F
OUT: -1
